B1: Myocardin-related transcription factor A, residues 341 to 383; numbered along this chain, Q969V6 (parent)
chain: GALPANLDDMKVAELKQELKLRSLPVSGTKTELIERLRAYQDQ

Variants of: B1
Experiment: abundance fitness (aPCA) (normalised: wild type 0, dead -1); higher = more abundant; growth selection in yeast, the domain comes from the species named
Conditions: Homo sapiens
Mark NOT MET for abundance fitness values under -0.2, and MET for everything at or above.

GALPANLDDMKVAELKQELKLLSLPVSGTKTELIERLRAYQDQ [R22L] : NOT MET
GALPANLDDMKVAELKQELKLRSLPVSGTKTELIERLAAYQDQ [R38A] : MET
GALPANLDDMKVAELKQELKLRSLPFSGTKTELIERLRAYQDQ [V26F] : MET

Then there is this variant:
Kindly determine if abundance fitness recorded for GALPANLDDMKVAELKQELKLRSLPVSGTKTESIERLRAYQDQ [L33S] is above or exactly -0.2.
MET
